Recorded EC50 by entry
# Tested on: H4
# Method Summary: Luminescence Cell-Based Dose Response HTS to Identify Activators of 5'UTR Stem-Loop Driven Prion Protein mRNA Translation in H4 Neuroglioblastoma Cells. [Related pubchem assays: 1829 (Project Summary), 1814 (Primary HTS)]
# Assay type: functional
# Measurement Conditions: Homo sapiens
Active and inactive are the calls of the source. No stated cut-off is given here; in the data, actives have a measured EC50 and inactives only a lower limit.

>  <Compound>
CCCN1CCC(=NNc2ccc(C(=O)O)cc2)CC1

>  <Measured Quantity>
EC50

>  <Measured Result>
10.7 µM (active)

$$$$
>  <Compound>
CC1(C)CC(=O)/C(=N/Nc2ccc(Cl)cc2)CO1

>  <Measured Quantity>
EC50

>  <Measured Result>
< 0.1 µM (active)

$$$$
>  <Compound>
O=[N+]([O-])c1ccc(N/N=C2\CC3CC=CC23)cc1 (stereo unspecified)

>  <Measured Quantity>
EC50

>  <Measured Result>
24.3 µM (active)

$$$$
>  <Compound>
Cc1nn(CCOc2ccccc2)c(=O)n1-c1c(F)cccc1F

>  <Measured Quantity>
EC50

>  <Measured Result>
32.2 µM (active)

$$$$
>  <Compound>
Cc1ccc(NC(=O)CSC2=C(C#N)C(c3ccco3)CC(=O)N2)cc1 (stereo unspecified)

>  <Measured Quantity>
EC50

>  <Measured Result>
16.1 µM (active)

$$$$

Then this compound:
Name the recorded EC50 for CN1CCN(c2ccc(-c3ccnn3C(=O)Nc3cccc(C(F)(F)F)c3)cc2)CC1 .
5.98 µM (active)
